Would you kindly list MIC for each of these compounds?

Value sought: MIC, system E. coli, item `C[N+](CCO)(CCO)CCCCCCSc1nnc(-c2ccc(F)cc2)o1` . Result: 100 µg/mL

Value sought: MIC, system E. coli, item C[N+](CCO)(CCO)CCCCCCCCCCCCSc1nc2ccccc2s1 [Compound 13d] . Result: ~25 µg/mL

Value sought: MIC, system E. coli, item `C[N+](CCO)(CCO)CCCCCCSc1nnc(-c2ccc(C(F)(F)F)cc2)o1` . Result: 50 µg/mL

Value sought: MIC, system E. coli, item `C[N+](CCO)(CCO)CCCCCCCCCCSc1nnc(-c2ccc(C(F)(F)F)cc2)o1.[Br-]` . Result: 25 µg/mL

###

Test: Haemolysis assay
Format: cell-based
Conditions: human red blood cells (erythrocyte suspension), 50.00 μg/mL, 1 h at 37 ℃, read-out: Haemolysis rate
Experimental: The surfactant may be absorbed and penetrate to the cell membrane, where it makes osmotic phenomena by altering the permeability of membrane, which in turn causes the cellular lysis. Haemolysis assay gives quantitative estimation about haemoglobin release when red blood cells are treated with QASs. Haemolytic assay of QASs at different concentration was carried out in Table 4. […] For 5a-b, 6a-b, 10a-c, 13a-b, and 16a-d, their safe concentration can more than 100 μg/mL. […]
Kind request: treat 4% as inclusive, so hemolysis at 1 h, 50 μg/mL at 4% or higher is YES, anything lower is NO.

Exercise: Hello, I need to know if `C[N+](CCO)(CCO)CCCCCCSc1nnc(-c2ccc(F)cc2)o1` has measured hemolysis at 1 h, 50 μg/mL not below 4%. Thanks!
Solution: NO

Exercise: Hello, I need to know if `C[N+](CCO)(CCO)CCCCCCCCSc1nnc(-c2ccc(C(F)(F)F)cc2)o1` has measured hemolysis at 1 h, 50 μg/mL not below 4%. Thanks!
Solution: NO

Exercise: Hello, I need to know if `C[N+](CCO)(CCO)CCCCCCCCCCSc1nnc(-c2ccc(F)cc2)o1` has measured hemolysis at 1 h, 50 μg/mL not below 4%. Thanks!
Solution: YES

Exercise: Hello, I need to know if `C[N+](CCO)(CCO)CCCCCCCCCCCCSc1nnc(-c2ccc(C(F)(F)F)cc2)o1.[Br-]` has measured hemolysis at 1 h, 50 μg/mL not below 4%. Thanks!
Solution: YES

Exercise: Hello, I need to know if `C[N+](CCO)(CCO)CCCCCCSc1nnc(-c2ccc(C(F)(F)F)cc2)o1` has measured hemolysis at 1 h, 50 μg/mL not below 4%. Thanks!
Solution: NO

Exercise: Hello, I need to know if `C[N+](CCO)(CCO)CCCCCCCCCCCCSc1nnc(-c2ccc(F)cc2)o1` has measured hemolysis at 1 h, 50 μg/mL not below 4%. Thanks!
Solution: YES

Exercise: Hello, I need to know if [H]/N=C(\N/C(=N/[H])NCCCCCCNC(=N)NC(=N)Nc1ccc(Cl)cc1)Nc1ccc(Cl)cc1 [CA, chlorhexidine acetate, reference compound] has measured hemolysis at 1 h, 50 μg/mL not below 4%. Thanks!
Solution: YES

Exercise: Hello, I need to know if `C[N+](CCO)(CCO)CCCCCCCCCCSc1nnc(-c2ccc(C(F)(F)F)cc2)o1.[Br-]` has measured hemolysis at 1 h, 50 μg/mL not below 4%. Thanks!
Solution: NO

Exercise: Hello, I need to know if C[N+](CCO)(CCO)CCCCCCCCCCCCSc1nc2ccccc2s1 [Compound 13d] has measured hemolysis at 1 h, 50 μg/mL not below 4%. Thanks!
Solution: YES

###

test: Cytotoxicity, MTT assay; assay type: cell-based, human; settings: human, HaCat cells, MTT, 24 h
Would you kindly list IC50 at 24 h for each of these molecules?

So for `C[N+](CCO)(CCO)CCCCCCSc1nnc(-c2ccc(F)cc2)o1` , the logged IC50 at 24 h turned out to be > 50 µg/mL

So for `C[N+](CCO)(CCO)CCCCCCSc1nnc(-c2ccc(C(F)(F)F)cc2)o1` , the logged IC50 at 24 h turned out to be > 50 µg/mL

So for `C[N+](CCO)(CCO)CCCCCCCCCCCCSc1nnc(-c2ccc(F)cc2)o1` , the logged IC50 at 24 h turned out to be 6.14 µg/mL

So for `C[N+](CCO)(CCO)CCCCCCCCSc1nnc(-c2ccc(C(F)(F)F)cc2)o1` , the logged IC50 at 24 h turned out to be > 25 µg/mL

So for C[N+](CCO)(CCO)CCCCCCCCCCCCSc1nc2ccccc2s1 [Compound 13d] , the logged IC50 at 24 h turned out to be 6.02 µg/mL

So for `C[N+](CCO)(CCO)CCCCCCCCCCSc1nnc(-c2ccc(F)cc2)o1` , the logged IC50 at 24 h turned out to be 19.4 µg/mL

###

test: Haemolysis assay; assay type: cell-based; details: human red blood cells (erythrocyte suspension), 100.00 μg/mL, 1 h at 37 ℃, read-out: Haemolysis rate
Would you kindly list hemolysis at 1 h, 100 μg/mL for each of these molecules?
Supply the numeric figure in %, leaving out any unit text.

So for [H]/N=C(\N/C(=N/[H])NCCCCCCNC(=N)NC(=N)Nc1ccc(Cl)cc1)Nc1ccc(Cl)cc1 [CA, chlorhexidine acetate, reference compound] , the logged hemolysis at 1 h, 100 μg/mL turned out to be 62.2

So for C[N+](CCO)(CCO)CCCCCCCCCCCCSc1nnc(-c2ccccc2)o1 [Compound 2, reference compound] , the logged hemolysis at 1 h, 100 μg/mL turned out to be 17.1

So for C[N+](CCO)(CCO)CCCCCCCCCCCCSc1nc2ccccc2s1 [Compound 13d] , the logged hemolysis at 1 h, 100 μg/mL turned out to be 48.6

So for C[N+](CCO)(CCO)CCCCCCCCSc1nnc(-c2ccc(C(F)(F)F)cc2)o1 [Compound 6b] , the logged hemolysis at 1 h, 100 μg/mL turned out to be 4.61

So for C[N+](CCO)(CCO)CCCCCCCCCCSc1nnc(-c2ccc(F)cc2)o1 [Compound 5c] , the logged hemolysis at 1 h, 100 μg/mL turned out to be 33.1

So for C[N+](CCO)(CCO)CCCCCCCCCCSc1nnc(-c2ccc(C(F)(F)F)cc2)o1.[Br-] [Compound 6c] , the logged hemolysis at 1 h, 100 μg/mL turned out to be 35.8

So for C[N+](CCO)(CCO)CCCCCCCCCCCCSc1nnc(-c2ccc(C(F)(F)F)cc2)o1.[Br-] [Compound 6d] , the logged hemolysis at 1 h, 100 μg/mL turned out to be 36.4

###

Structures can show the parent of a compound that is named as a salt.
Would you kindly list melting point for each of these compounds?

So for C[N+](CCO)(CCO)CCCCCCSc1nnc(-c2ccc(F)cc2)o1 (as salt: bromide) , the logged melting point turned out to be 74 to 76 °C

So for C[N+](CCO)(CCO)CCCCCCCCCCSc1nc2ccccc2o1 (as salt: bromide) [Compound 10c] , the logged melting point turned out to be 128 to 129 °C

So for CC(C)(C)c1ccc(-c2nnc(SCCCCCCCC[N+](C)(CCO)CCO)o2)cc1 (as salt: bromide) , the logged melting point turned out to be 71 to 72 °C

So for C[N+](CCO)(CCO)CCCCCCCCCCSc1nc2ccccc2s1 (as salt: bromide) [Compound 13c] , the logged melting point turned out to be 111 to 112 °C

###

test: Cytotoxicity, MTT assay; format: cell-based, human; conditions: human, LO2 human normal liver cells, LO2 cells, MTT, 24 h
RESULT TYPE: IC50 at 24 h (µg/mL)
Supply the numeric figure in µg/mL, leaving out any unit text.

So for C[N+](CCO)(CCO)CCCCCCCCCCSc1nnc(-c2ccc(F)cc2)o1 [Compound 5c] , the logged IC50 at 24 h turned out to be 23.9

So for C[N+](CCO)(CCO)CCCCCCCCCCSc1nnc(-c2ccc(C(F)(F)F)cc2)o1.[Br-] [Compound 6c] , the logged IC50 at 24 h turned out to be 19.6

So for C[N+](CCO)(CCO)CCCCCCCCCCCCSc1nnc(-c2ccc(C(F)(F)F)cc2)o1.[Br-] [Compound 6d] , the logged IC50 at 24 h turned out to be 5.86

So for C[N+](CCO)(CCO)CCCCCCCCCCCCSc1nnc(-c2ccccc2)o1 [Compound 2, reference compound] , the logged IC50 at 24 h turned out to be 14.2

So for C[N+](CCO)(CCO)CCCCCCCCCCCCSc1nc2ccccc2s1 [Compound 13d] , the logged IC50 at 24 h turned out to be 8.96

So for C[N+](CCO)(CCO)CCCCCCCCCCCCSc1nnc(-c2ccc(F)cc2)o1 [Compound 5d] , the logged IC50 at 24 h turned out to be 6.95

###

tested on: P. aeruginosa; assay: MBC, agar plating of dilutions without growth; format: cell-based; settings: Pseudomonas aeruginosa, 99.9% bactericidal, read-out: Minimal bactericidal concentration (MBC)
Would you kindly list MBC for each of these molecules?
Supply the numeric figure in µg/mL, leaving out any unit text.

So for [H]/N=C(\N/C(=N/[H])NCCCCCCNC(=N)NC(=N)Nc1ccc(Cl)cc1)Nc1ccc(Cl)cc1 [CA, chlorhexidine acetate, reference compound] , the logged MBC turned out to be 25

So for C[N+](CCO)(CCO)CCCCCCSc1nnc(-c2ccc(F)cc2)o1 [Compound 5a] , the logged MBC turned out to be 100

So for C[N+](CCO)(CCO)CCCCCCCCCCCCSc1nnc(-c2ccc(C(F)(F)F)cc2)o1.[Br-] [Compound 6d] , the logged MBC turned out to be 50

So for C[N+](CCO)(CCO)CCCCCCCCCCSc1nnc(-c2ccc(F)cc2)o1 [Compound 5c] , the logged MBC turned out to be 50

So for C[N+](CCO)(CCO)CCCCCCCCCCCCSc1nnc(-c2ccc(F)cc2)o1 [Compound 5d] , the logged MBC turned out to be 50

So for C[N+](CCO)(CCO)CCCCCCSc1nnc(-c2ccc(C(F)(F)F)cc2)o1 [Compound 6a] , the logged MBC turned out to be 100

So for C[N+](CCO)(CCO)CCCCCCCCCCCCSc1nc2ccccc2s1 [Compound 13d] , the logged MBC turned out to be 25

So for C[N+](CCO)(CCO)CCCCCCCCCCCCSc1nnc(-c2ccccc2)o1 [Compound 2, reference compound] , the logged MBC turned out to be 25

So for C[N+](CCO)(CCO)CCCCCCCCSc1nnc(-c2ccc(C(F)(F)F)cc2)o1 [Compound 6b] , the logged MBC turned out to be 50

So for C[N+](CCO)(CCO)CCCCCCCCCCSc1nnc(-c2ccc(C(F)(F)F)cc2)o1.[Br-] [Compound 6c] , the logged MBC turned out to be 50
